# system-under-test: Catechol O-methyltransferase (Homo sapiens)
# assay-method-text: Primary Screen for Target Class Profiling of Small Molecule Inhibitors of Methyltransferases
# conditions-used: purified enzyme, MTase-Glo SAH luminescence; at 40 µM
The whole screen tested about 25,000 compounds, of which about 970 (3.9%) were called active. Another 8% or so got no clear call; they are omitted. The rule behind the calls is not given here. This excerpt belongs to a sample that is enriched for actives.
Possible outcomes: TRUE = active, FALSE = inactive

[
  {
    "compound": "NCC(O)c1ccc(O)cc1 (stereo not given)",
    "class-label": "TRUE"
  },
  {
    "compound": "COc1cccc([C@H]2CN(c3cc(C)nc(N)n3)[C@@H]3C4CCN(CC4)[C@H]23)c1",
    "class-label": "FALSE"
  },
  {
    "compound": "C[C@H]1O[C@@H](O[C@H]2CC[C@]3(CO)C4CC[C@]5(C)[C@@H](C6=CC(=O)OC6)CC[C@]5(O)[C@@H]4CC[C@H]3C2)[C@H](O)[C@H](O)[C@@H]1O[C@@H]1O[C@H](CO)[C@@H](O)[C@H](O)[C@H]1O (stereo not given in full)",
    "class-label": "TRUE"
  },
  {
    "compound": "C#C[C@]1(O)CC[C@H]2[C@@H]3CC[C@H]4Cc5nc6nc7ccccc7n6cc5C[C@]4(C)[C@H]3CC[C@@]21C",
    "class-label": "TRUE"
  },
  {
    "compound": "CCc1ccccc1NC(=O)N1Cc2ccccc2-n2cccc2C1c1ccccc1Cl (stereo not given)",
    "class-label": "FALSE"
  }
]
